Attribution: ChEMBL document CHEMBL3351234

experiment description: in vivo
cond: rat, plasma, po, 2.5 mg/kg
experimental readout: AUC(0-inf)

AUC(0-inf) in this record for CC(C)S(=O)(=O)c1ccccc1Nc1nc(Nc2cccc(NC(=O)CN)c2)ncc1Cl : 454 ng·h/mL

* * *

experiment description: physchem
cond: aqueous
experimental readout: solubility

solubility in this record for CC(C)S(=O)(=O)c1ccccc1Nc1nc(Nc2cccc(NC(=O)CN)c2)ncc1Cl : < 100 µg/mL
